Target: Recombinant human KIF18A (1-467 His-tagged) protein (Homo sapiens)
Construct: Recombinant human KIF18A (1-467 His-tagged) protein; His
Sequence (Q8NI77 1-467): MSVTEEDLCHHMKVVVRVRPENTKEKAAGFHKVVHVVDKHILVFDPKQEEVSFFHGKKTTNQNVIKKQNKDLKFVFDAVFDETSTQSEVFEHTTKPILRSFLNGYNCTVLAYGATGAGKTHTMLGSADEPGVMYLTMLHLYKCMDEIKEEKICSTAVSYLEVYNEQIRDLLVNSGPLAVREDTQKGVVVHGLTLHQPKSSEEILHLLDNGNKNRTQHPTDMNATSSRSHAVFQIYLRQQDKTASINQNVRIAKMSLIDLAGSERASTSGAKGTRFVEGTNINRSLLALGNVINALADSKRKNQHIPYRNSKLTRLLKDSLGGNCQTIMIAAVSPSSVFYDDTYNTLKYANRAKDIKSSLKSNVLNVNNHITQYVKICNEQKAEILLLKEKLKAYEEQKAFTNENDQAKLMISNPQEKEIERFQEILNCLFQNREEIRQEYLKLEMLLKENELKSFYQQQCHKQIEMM
Sequence (P02550 whole entry partner): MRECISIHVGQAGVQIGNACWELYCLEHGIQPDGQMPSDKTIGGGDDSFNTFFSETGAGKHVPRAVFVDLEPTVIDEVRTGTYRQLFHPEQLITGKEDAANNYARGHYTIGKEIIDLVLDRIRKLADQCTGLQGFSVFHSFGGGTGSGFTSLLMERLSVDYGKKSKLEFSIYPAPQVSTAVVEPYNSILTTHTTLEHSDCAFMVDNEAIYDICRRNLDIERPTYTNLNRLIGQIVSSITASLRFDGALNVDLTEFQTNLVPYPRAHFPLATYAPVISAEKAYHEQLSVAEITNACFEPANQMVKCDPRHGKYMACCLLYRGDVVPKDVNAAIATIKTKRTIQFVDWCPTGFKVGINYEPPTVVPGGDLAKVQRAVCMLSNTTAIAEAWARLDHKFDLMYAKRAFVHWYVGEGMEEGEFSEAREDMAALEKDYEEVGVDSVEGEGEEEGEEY
Sequence (P02554 whole entry partner): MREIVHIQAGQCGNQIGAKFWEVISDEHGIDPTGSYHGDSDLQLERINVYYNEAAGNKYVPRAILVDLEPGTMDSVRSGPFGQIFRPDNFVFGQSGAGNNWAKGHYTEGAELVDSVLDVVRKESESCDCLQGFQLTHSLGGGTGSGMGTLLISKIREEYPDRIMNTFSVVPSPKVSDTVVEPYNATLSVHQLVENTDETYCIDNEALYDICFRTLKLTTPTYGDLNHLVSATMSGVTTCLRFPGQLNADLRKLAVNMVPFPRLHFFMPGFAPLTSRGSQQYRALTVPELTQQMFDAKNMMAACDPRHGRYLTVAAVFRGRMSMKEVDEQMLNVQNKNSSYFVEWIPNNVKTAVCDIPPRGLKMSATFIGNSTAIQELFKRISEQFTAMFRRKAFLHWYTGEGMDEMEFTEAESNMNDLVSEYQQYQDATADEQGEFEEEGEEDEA
Assay: KIF18A Enzyme Assay: microtubule-stimulated ATPase activity (ADP-Glo)
Conditions: 30 nM KIF18A, 75 μM ATP
Kindly state IC50 for each of the entries shown.
Answers are plain numbers, in nM.

Some compounds with known IC50 results, for comparison:
compound="CN(C1CCC1)S(=O)(=O)c1cccc(NC(=O)c2cccnc2N2CCC3(CC2)CC3)c1 [Example 101-2]" tested_on="Recombinant human KIF18A (1-467 His-tagged) protein (Homo sapiens)" value_unit=nM test_result=610
compound="O=C(Nc1cccc(S(=O)(=O)NC2CCC2)c1)c1cccnc1N1CCC2(CC1)CC2 [Example 101-1]" tested_on="Recombinant human KIF18A (1-467 His-tagged) protein (Homo sapiens)" value_unit=nM test_result=323
compound="O=C(Nc1cccc(S(=O)(=O)N2CC(F)(F)C2)c1)c1cccnc1N1CCC2(CC1)CC2 [Example 101-5]" tested_on="Recombinant human KIF18A (1-467 His-tagged) protein (Homo sapiens)" value_unit=nM test_result=401
compound="CC1(NS(=O)(=O)c2cccc(NC(=O)c3cccnc3N3CCC4(CC3)CC4)c2)CCC1 [Example 101-3]" tested_on="Recombinant human KIF18A (1-467 His-tagged) protein (Homo sapiens)" value_unit=nM test_result=189

Provide the reported IC50 of each entry below, same order.
1. CC(C)(C)NS(=O)(=O)c1cccc(NC(=O)c2ccc(N3CC(S(C)(=O)=O)C3)nc2N2CCC3(CC2)CC3)c1 [Example 102-15]
2. Cc1ccc(NC(=O)c2ccc(NC(C)(C)CO)nc2N2CCC3(CC2)CC3)cc1N1CCCC1=O [Example 105-29]
3. O=C(Nc1cccc(S(=O)(=O)N2CCC(F)(F)CC2)c1)c1cccnc1N1CCC2(CC1)CC2 [Example 100-7]
4. CC(C)(C)NS(=O)(=O)c1cccc(NC(=O)c2ccc(N[C@@H]3CCOC3)nc2N2CCC3(CC2)CC3)c1 [Example 102-21]
5. O=C(Nc1cccc(S(=O)(=O)C2CCCC2)c1)c1ccncc1N1CCC2(CC1)CC2 [Example 114-1]
6. CC(C)(C)NS(=O)(=O)c1cccc(NC(=O)c2ccc(N3CC(O)(C(F)(F)F)C3)nc2N2CCC3(CC2)CC3)c1 [Example 102-14]
7. O=C(Nc1cccc(S(=O)(=O)C2CCCC2)c1)c1ccc(N[C@H]2CCOC2)nc1N1CCC2(CC1)CC2 [Example 103-16]
8. CC(C)(C)NS(=O)(=O)c1cccc(NC(=O)c2ccc(N[C@H]3CC[C@H](O)C3)nc2N2CCC3(CC2)CC3)c1 [Example 102-23]

## Result
1: 182; 2: 279; 3: 104; 4: 134; 5: 253; 6: 280; 7: 115; 8: 185
